The measured values listed here are drawn from patent US6362188B1.

Readings of melting point for the listed compounds

Illustrative cases are given below, each with its answer.
- COMPOUND: "Cc1cn(CC2CCCN(C(=O)C3CN(C4c5ccc(Cl)cc5CCc5cccnc54)CCN3C(=O)OC3CCCCC3)C2)cn1 (stereo not drawn) [Example 42]"
  MEASUREMENT LABEL: "melting point"
  OBS VALUE: "99 to 113 °C"
- COMPOUND: "Cc1cn(C[C@@H]2CCCN(C(=O)[C@H]3CN([C@@H]4c5ccccc5CCc5cc(Br)cnc54)CCN3C(=O)OC3CCCCC3)C2)cn1"
  MEASUREMENT LABEL: "melting point"
  OBS VALUE: "122 to 125 °C"
- COMPOUND: "O=C([C@H]1CN([C@@H]2c3ccc(Cl)cc3CCc3cc(Br)cnc32)CCN1C(=O)OC1CCCCC1)N1CCC[C@@H](Cn2ccnc2)C1"
  MEASUREMENT LABEL: "melting point"
  OBS VALUE: "140 to 144 °C"
- COMPOUND: "Cc1ncn(CC2CCCN(C(=O)C3CN(C4c5ccc(Cl)cc5CCc5cccnc54)CCN3C(=O)OC3CCCCC3)C2)c1C (single isomer, unassigned) [47(H)]"
  MEASUREMENT LABEL: "melting point"
  OBS VALUE: "106 to 125 °C"
- COMPOUND: "Cc1nccn1CC1CCCN(C(=O)C2CN(C3c4ccc(Cl)cc4CCc4cccnc43)CCN2C(=O)OC(C)(C)C)C1 (single isomer, unassigned) [Example 27]"
  MEASUREMENT LABEL: "melting point"
  OBS VALUE: "110 to 119 °C"

The record that follows has no melting point shown yet.
Exercise: # input compound: Cc1nccn1CC1CCCN(C(=O)C2CN(C3c4ccc(Cl)cc4CCc4cccnc43)CCN2C(=O)OC2CCCCC2)C1 (single isomer, unassigned) [Example 44] ; wanted: its melting point
Solution: 112 to 135 °C
